Test system: HL-60(TB) leukemia
MEASUREMENT_NOTES: NCI tumour cell line growth inhibition, 48 h
MEASUREMENT_TYPE: TGI (µM)
Answer in µM, number only, no unit symbol.

>>> reported_result("CN1CCN(c2ccc(Nc3ncc(Cl)c(NC[C@@H]4CCCO4)n3)cc2)CC1")
4.76

# input for lookup
Param readout= TGI; system= HL-60(TB) leukemia; entry= Cc1ccc(-c2nc(N3CCNCC3)c3oc(-c4ccc(C)cc4)nc3n2)cc1 ; returns value. 3.26

---

Each record here notes measured TGI.
Tested on: KM12 colon
MEASUREMENT_NOTES: NCI tumour cell line growth inhibition, 48 h

Check out these entries, answers already filled in.
>>> reported_result("C=CCNC(=S)N/C=C(\\C#N)C(N)=O")
"> 100 µM"
>>> reported_result("Cc1cn(C2OC(CO[Si](C)(C)C(C)(C)C)C(N(C)O[Si](C)(C)C(C)(C)C)C2[Se]c2ccccc2)c(=O)[nH]c1=O (stereo unspecified)")
"16.2 µM"
>>> reported_result("O=C(CC1Sc2ccccc2NC1=O)Nc1ccccc1[N+](=O)[O-] (stereo unspecified)")
"> 100 µM"

Param readout= TGI; system= KM12 colon; entry= CCNC(=O)C#Cc1ccc2c(C(=Nc3ccc(CN(C)C)cc3)c3ccccc3)c(O)[nH]c2c1 ; returns value. > 10 µM

Param readout= TGI; system= KM12 colon; entry= CC1=C/C(=N\NC(N)=S)C(C(O)(C(F)(F)F)C(F)(F)F)C(C)(C)C1 (stereo unspecified) ; returns value. > 10 µM

Param readout= TGI; system= KM12 colon; entry= COCCn1cc(-c2nc(-c3cc4cccnc4[nH]3)cs2)c2cc(OC)ccc21 ; returns value. 9.38 µM

Param readout= TGI; system= KM12 colon; entry= CC(=O)CC1CCC(=O)/C=C/C(=O)OC(CC(C)=O)CCC(=O)/C=C/C(=O)O1 (stereo unspecified) ; returns value. 42.8 µM

Param readout= TGI; system= KM12 colon; entry= N#Cc1cccc(-n2[nH]c(=O)ccc2=O)c1 ; returns value. > 100 µM

Param readout= TGI; system= KM12 colon; entry= O=C(O)C1C2c3ccccc3C(c3ccccc32)C1C(=O)NCC1CC1 (stereo unspecified) ; returns value. > 100 µM

Param readout= TGI; system= KM12 colon; entry= Cc1ccc2nc(-c3ccccc3)cc(=O)n2c1 ; returns value. > 100 µM

Param readout= TGI; system= KM12 colon; entry= COc1ccc2c(c1)[n+]([O-])c(C(N)=O)c(N)[n+]2[O-] ; returns value. > 100 µM

Param readout= TGI; system= KM12 colon; entry= COc1c(CC(C)=O)ccc2c1C(=O)c1ccc(C=O)c(OC(C)=O)c1C2=O ; returns value. 39.2 µM

Param readout= TGI; system= KM12 colon; entry= Clc1ccc2cccc3c2c1C1OC3c2ccccc21 (stereo unspecified) ; returns value. > 100 µM

Param readout= TGI; system= KM12 colon; entry= COc1ccc(C2=CC(C(C)=C(C(N)=O)C(N)=O)C=C(c3ccc(Br)cc3)C2)c(OC)c1 (stereo unspecified) ; returns value. > 100 µM

Param readout= TGI; system= KM12 colon; entry= O=[N+]([O-])c1cc([N+](=O)[O-])c(C(F)(F)F)cc1NN=C(c1ccc(O)cc1)c1ccc(O)cc1 ; returns value. 7.85 µM

Param readout= TGI; system= KM12 colon; entry= NC(Cc1ccccc1)C(=O)NC(Cc1ccccc1)NC(=O)C(Cc1c[nH]c2ccccc12)C(=O)O (stereo unspecified) ; returns value. > 100 µM

Param readout= TGI; system= KM12 colon; entry= COc1cc(-c2cccs2)sc1-c1cccs1 ; returns value. > 100 µM

Param readout= TGI; system= KM12 colon; entry= O=C(NC1C=CCC2C(=O)N(c3ccccc3)C(=O)C12)OCc1ccccc1 (stereo unspecified) ; returns value. > 100 µM

---

Each record here notes measured TGI.
Tested on: UACC-257 melanoma
MEASUREMENT_NOTES: NCI tumour cell line growth inhibition, 48 h

>>> reported_result("CCOC(=O)C1Sc2ccccc2N=C1C (stereo not drawn)")
"> 100 µM"

Which TGI is listed for CCOC(=O)c1cn2c(n1)sc1cc(F)ccc12 ? > 100 µM

Which TGI is listed for Clc1ccc2cccc3c2c1C1OC3c2ccccc21 (stereo not drawn) ? > 100 µM

---

System: ACHN renal
MEASUREMENT_NOTES: NCI tumour cell line growth inhibition, 48 h
MEASUREMENT_TYPE: TGI (µM)
Answer in µM, number only, no unit symbol.

Check out these entries, answers already filled in.
>>> reported_result("O=C1c2cccc3cc([N+](=O)[O-])cc(c23)C(=O)N1Nc1ccc([N+](=O)[O-])cc1[N+](=O)[O-]")
7.06
>>> reported_result("CCOC(=O)CCC(NC(=O)C(N)Cc1ccc(N(CCCl)CCCl)cc1)C(=O)OCC (stereo not drawn)")
0.692
>>> reported_result("COc1cc2c(cc1O)[C@H](C)C(c1ccc(OC)c(OC)c1)O2 (stereo partly drawn)")
22.4

Which TGI is listed for Cc1cn(C2OC(CO[Si](C)(C)C(C)(C)C)C(N(C)O[Si](C)(C)C(C)(C)C)C2[Se]c2ccccc2)c(=O)[nH]c1=O (stereo not drawn) ? 18.3

---

System: SK-MEL-28 melanoma
MEASUREMENT_NOTES: NCI tumour cell line growth inhibition, 48 h; in the data active = GI50 below about 0.43 µM; inactive = the rest
Hello, when you answer, please use one of the following outcomes: class 1 = active, class 0 = inactive

>>> class("NCCNCCNCCN")
"class 0"
>>> class("NC(=S)N/N=C1\\c2cc(Cl)ccc2-c2c1cc(Cl)cc2[N+](=O)[O-]")
"class 0"
>>> class("O=C1c2c(F)c(F)c(F)c(F)c2C(=O)N1c1ccc(F)cc1F")
"class 0"
>>> class("CN1CCN(C(=O)COc2ccc(C34CC5CC(CC(C5)C3)C4)cc2)CC1")
"class 0"
>>> class("O=C1NC(=NCc2ccccc2)S/C1=C\\c1ccc2ncccc2c1")
"class 0"

With those in mind, consider the next compound.
Identify the outcome logged in this assay for the compound shown: OC(c1cc(C(F)(F)F)nc2c(C(F)(F)F)cccc12)C1CCCCN1 (stereo not given) class 0

---

Each record here notes measured TGI.
Test system: HL-60(TB) leukemia
MEASUREMENT_NOTES: NCI tumour cell line growth inhibition, 48 h
Answer in µM, number only, no unit symbol.

Check out these entries, answers already filled in.
>>> reported_result("CC(=C(c1ccc(OCCN2CCCCC2)cc1)c1ccc(OCCN2CCCCC2)cc1)c1ccc(Cl)cc1")
0.957
>>> reported_result("C(=C/CCCN1O[C@@H](CCCCCCCCc2cccnc2)[C@H]2CCC[C@H]21)/CCCCCCCCCc1cccnc1")
23

# input for lookup
Which TGI is listed for CC(C)(C)[Si](C)(C)OC1[C@@H](O[Si](C)(C)C(C)(C)C)[C@@H](CNC(=O)NC(=O)C(F)(F)F)O[C@H]1n1cnc2c(NC(=O)Nc3ccccc3)ncnc21 (some centres undefined) ? 26.4

---

Each record here notes measured TGI.
Tested on: PC-3 prostate
MEASUREMENT_NOTES: NCI tumour cell line growth inhibition, 48 h

Check out these entries, answers already filled in.
>>> reported_result("Cc1ccc(NC2=C3CCCCC3OC2=O)cc1 (centres undefined)")
"> 100 µM"
>>> reported_result("C=C(C)C12OC1[C@@]1(C)C(=CC2=O)CCC(O)[C@@H]1C (some centres undefined)")
"27.8 µM"
>>> reported_result("CN(C)CC(O)c1ccc(/C=C/c2ccc(Cl)cc2)cc1 (centres undefined)")
"3.09 µM"

Param readout= TGI; system= PC-3 prostate; entry= c1ccc(-c2n(Cc3ccc4ccccc4n3)cc[n+]2Cc2ccc3ccccc3c2)cc1 ; returns value. 5.51 µM

---

Each record here notes measured TGI.
Test system: SR leukemia
MEASUREMENT_NOTES: NCI tumour cell line growth inhibition, 48 h
Answer in µM, number only, no unit symbol.

>>> reported_result("Cc1ccc(S(=O)(=O)N2CC2CCCCC=O)cc1 (stereo not drawn)")
37.2

# input for lookup
Which TGI is listed for O=C(Nc1nn2c(-c3cc(C(F)(F)F)cc(C(F)(F)F)c3)nnc2s1)C1CCCC1 ? 6.21

---

System: LOX IMVI melanoma
MEASUREMENT_NOTES: NCI tumour cell line growth inhibition, 48 h; in the data active = GI50 below about 0.43 µM; inactive = the rest
Hello, when you answer, please use one of the following outcomes: active, inactive

Here are 3 compounds together with their reported answers.
>>> class("COc1cc(-c2nc3sccn3c2-c2ccnc(NCCNS(=O)(=O)c3ccc(F)cc3)n2)ccc1F")
"inactive"
>>> class("NCCNCCNCCN")
"inactive"
>>> class("COc1cc2c(cc1OC)-c1cc(OC)c(OC)cc1C(CN(C)C)C2 (stereo not given)")
"inactive"

Identify the outcome logged in this assay for the compound shown: C#Cc1cccc(Nc2nc3cc([N+](=O)[O-])ccc3nc2Nc2ccc(O)cc2)c1 inactive

Identify the outcome logged in this assay for the compound shown: Cc1ccc(-c2nc(N3CCNCC3)c3oc(-c4ccc(C)cc4)nc3n2)cc1 inactive

Identify the outcome logged in this assay for the compound shown: CN(C)CC(O)c1ccc(/C=C/c2ccc(Cl)cc2)cc1 (stereo not given) inactive

Identify the outcome logged in this assay for the compound shown: NC(=S)N/N=C1\c2cc(Cl)ccc2-c2c1cc(Cl)cc2[N+](=O)[O-] inactive

Identify the outcome logged in this assay for the compound shown: CCCCCCCCCCSC(=N)N (tested in a mixture with another compound) inactive

Identify the outcome logged in this assay for the compound shown: CC(=C(c1ccc(OCCN2CCCCC2)cc1)c1ccc(OCCN2CCCCC2)cc1)c1ccc(Cl)cc1 active

Identify the outcome logged in this assay for the compound shown: C/C=C/[C@@H]1O[C@@H]2COC(=O)C2=C[C@@H]1O inactive

Hello, the source for this data is PubChem BioAssay (NCI), in case you need it.
